Here, each record is paired with measured pKd data.
- SYSTEM NAME: human FGFR2 IIIc variant protein (isoform 1: NP_000132), expressed on transfected cells (UniProt P21802 22-821)
- Sequence (P21802 22-821, change not shown): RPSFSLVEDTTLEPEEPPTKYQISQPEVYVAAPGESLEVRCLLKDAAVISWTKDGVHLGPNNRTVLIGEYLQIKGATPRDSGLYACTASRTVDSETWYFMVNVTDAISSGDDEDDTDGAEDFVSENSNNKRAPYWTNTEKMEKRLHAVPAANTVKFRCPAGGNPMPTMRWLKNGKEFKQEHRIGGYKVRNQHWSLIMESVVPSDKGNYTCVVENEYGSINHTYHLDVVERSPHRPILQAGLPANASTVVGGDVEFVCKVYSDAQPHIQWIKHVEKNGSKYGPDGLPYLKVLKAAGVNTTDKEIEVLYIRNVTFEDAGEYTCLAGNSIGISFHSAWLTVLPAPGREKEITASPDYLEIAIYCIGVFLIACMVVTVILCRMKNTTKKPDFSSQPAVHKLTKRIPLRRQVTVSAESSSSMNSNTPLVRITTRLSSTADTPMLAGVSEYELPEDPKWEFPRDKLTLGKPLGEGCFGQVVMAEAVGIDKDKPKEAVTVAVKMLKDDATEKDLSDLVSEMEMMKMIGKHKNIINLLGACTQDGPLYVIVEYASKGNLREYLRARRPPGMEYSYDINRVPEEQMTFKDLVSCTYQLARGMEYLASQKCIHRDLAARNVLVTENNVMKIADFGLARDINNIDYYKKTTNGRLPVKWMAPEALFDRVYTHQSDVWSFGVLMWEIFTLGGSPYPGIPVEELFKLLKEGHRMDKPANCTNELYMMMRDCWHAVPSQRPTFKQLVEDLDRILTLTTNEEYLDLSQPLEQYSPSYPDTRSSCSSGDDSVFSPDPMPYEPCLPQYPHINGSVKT
- TEST DETAILS: Biacore
Convention used: pKd is expressed as -log10 of the molar concentration.

query: Need pKd, item humanized anti-FGFR2 antibody hFR2-14_H9/L1 (antibody, V domains shown) VH: QVQLVQSGAEVKKPGASVKVSCKASGFTFSTSYMSWVRQAPGPSTEWMGWIYAGDGGTKYNQKFKGRVTLTVDKSTSTAYMELSSLRSEDTAVYYCATDHYGDWFTYWGQGTLVTVSS VL: DIQMTQSPSSLSASVGDRVTITCRASEDIYSNLAWYQQKPGKSPQLLIYDANILADGVPSRFSGSGSGTDYTLTISSLQPEDFATYYCQQYNNYPPFTFGQGTKVEIKR
result: 9.29

***
query: Need pKd, item humanized anti-FGFR2 antibody hFR2-14_H17/L1 (antibody, V domains shown) VH: QVQLVQSGAEVKKPGASVKVSCKASGFTFSTSYMSWVRQAPGPSTEWMGWIYAGDGGTKYNQKFKGRVTLTVDKSTSTAYMELSSLRSEDTAVYYCATDWYGDWFTYWGQGTLVTVSS VL: DIQMTQSPSSLSASVGDRVTITCRASEDIYSNLAWYQQKPGKSPQLLIYDANILADGVPSRFSGSGSGTDYTLTISSLQPEDFATYYCQQYNNYPPFTFGQGTKVEIKR
result: 8.82

query: Need pKd, item humanized anti-FGFR2 antibody hFR2-14_H7/L1 (antibody, V domains shown) VH: QVQLVQSGAEVKKPGASVKVSCKASGFTFSTSYMSWVRQAPGPSTEWMGWIYAGDGGTKYNQKFKGRVTLTVDKSTSTAYMELSSLRSEDTAVYYCATDEYGDWFTYWGQGTLVTVSS VL: DIQMTQSPSSLSASVGDRVTITCRASEDIYSNLAWYQQKPGKSPQLLIYDANILADGVPSRFSGSGSGTDYTLTISSLQPEDFATYYCQQYNNYPPFTFGQGTKVEIKR
result: 8.92
